# test.target: Acetylcholinesterase (Rattus norvegicus)
# Sequence (P37136 whole entry): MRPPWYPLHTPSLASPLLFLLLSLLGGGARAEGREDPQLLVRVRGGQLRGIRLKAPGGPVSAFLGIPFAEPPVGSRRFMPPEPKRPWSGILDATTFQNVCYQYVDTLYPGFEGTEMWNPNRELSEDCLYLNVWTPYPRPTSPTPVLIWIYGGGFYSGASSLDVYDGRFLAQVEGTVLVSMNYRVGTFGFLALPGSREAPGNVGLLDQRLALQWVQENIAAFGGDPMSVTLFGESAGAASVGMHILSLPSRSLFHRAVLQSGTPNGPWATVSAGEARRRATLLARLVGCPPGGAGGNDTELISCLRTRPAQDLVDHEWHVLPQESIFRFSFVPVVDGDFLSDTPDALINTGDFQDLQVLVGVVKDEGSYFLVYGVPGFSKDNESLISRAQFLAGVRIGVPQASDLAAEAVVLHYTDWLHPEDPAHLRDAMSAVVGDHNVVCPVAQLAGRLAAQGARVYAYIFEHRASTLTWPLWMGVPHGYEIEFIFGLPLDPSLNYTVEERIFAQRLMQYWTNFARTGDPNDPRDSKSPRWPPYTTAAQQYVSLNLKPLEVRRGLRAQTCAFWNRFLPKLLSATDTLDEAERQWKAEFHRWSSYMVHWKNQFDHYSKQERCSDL
readout.type: IC50 (nM)
One number for each entry, in nM.

Sample records with IC50:
O=C(CNc1c2c(nc3ccccc13)CCCC2)NCCC1CCN(c2ccccc2)CC1: 6
O=C(CNC1CCc2ccccc21)NCCC1CCN(Cc2ccccc2)CC1 (stereo not drawn): 230

Now, please, on to the next molecule.
Entry under review: `COc1ccc(C(=O)NCC(=O)NCCC2CCN(Cc3ccccc3)CC2)cc1OC` . Reported IC50?
662

Data origin: ChEMBL document CHEMBL1137830
